Data origin: PubChem BioAssay (NCATS)

RUN_DESCRIPTION: qHTS for differential inhibitors of proliferation of Plasmodium falciparum line Dd2 (AID 1882); note: nearly all actives have a fitted effect of over 65% in size
REPORTED_CONDITIONS: Plasmodium falciparum Dd2 proliferation inhibition; series mostly up to 28.7 µM
Records with an inconclusive call do not appear. Calls of active or inactive are those of the source. Calls come from the whole dose curve; as a rule, active = well fitted inhibition curve with a large enough effect; inconclusive = small, poorly fitted or top-dose-only effect; inactive = flat fitted curve, though single readings scatter.
Outcome codes: 1 for active, -1 for inactive

COMPOUND	CAT
CC1=C(/C=C/C(C)=C/C=C/C(C)=C\C(=O)O)C(C)(C)CCC1	1
C=CCN1CCc2c(cc(O)c(O)c2Cl)C(c2ccccc2)C1 (centres undefined)	1
COc1ccc(C(=O)NCc2cccnc2)cc1C(=O)NCc1cccnc1	-1
C[C@@]1(C2CCCC2)Cc2cc(OCC(=O)O)c(Cl)c(Cl)c2C1=O	-1
Oc1ccc(Cn2cc[nH]c2=S)cc1	-1
O=C(O)Cc1ccc(O)c(O)c1	-1
N[C@@H](CS(=O)O)C(=O)O	-1
N[C@@H](Cc1ccc(F)cc1)C(=O)O	-1
c1ccc(CN2CCC3(CCCc4ccccc43)CC2)cc1	1
Cc1cccc(C(=O)NCN2CCN(c3ccccc3C#N)CC2)c1	-1
CCCn1c(=O)c2[nH]c(C3CCCC3)nc2n(CCC)c1=O	-1
CCC1(O)CC2CN(CCc3c([nH]c4ccccc34)[C@@](C(=O)OC)(c3cc4c(cc3OC)N(C)C3[C@]45CCN4CC=C[C@@](CC)([C@@H](OC(C)=O)[C@]3(O)C(=O)OC)[C@H]45)C2)C1 (some centres undefined)	1
O=C1OC(=O)C2C3CCC(O3)C12 (centres undefined)	-1
NC1(C(=O)O)CCc2cc(C(=O)O)ccc21 (centres undefined)	-1
O=C(O)C1CCNCC1	-1
NC(Cc1cccc(-c2ccccc2CP(=O)(O)O)c1)C(=O)O (centres undefined)	-1
O=C(O)[C@H]1NCCC[C@H]1C(=O)O	-1
CCCCCCC/C=C\CCCCCCCCC(=O)O	-1
NC(C(=O)N[C@@H]1C(=O)N2C(C(=O)O)=C(Cl)CS[C@H]12)c1ccccc1 (some centres undefined)	-1
COc1cc(/C=C(\C#N)C(=O)c2ccc(O)c(O)c2)cc(I)c1O	-1
O=c1[nH]ccc2c(O)cccc12	-1
N[C@H](C(=O)O)c1cc(O)cc(O)c1	-1
CC1C(=O)N(C)C(=O)c2nc[nH]c21 (centres undefined)	-1
N=C(N)c1ccc(N)cc1	-1
N=C(N)c1ccccc1	-1
N[C@@H](CCC(=O)N[C@H](CSN=O)C(=O)NCC(=O)O)C(=O)O	-1
NC(N)=[N+]1CCc2ccccc2C1	-1
CCn1c(=O)[nH]c2cc(Cl)c(Cl)cc21	-1
CC[N+](CC)(CC)CC(=O)Nc1c(C)cccc1C	-1
O=c1oc(Cl)c(Cl)c2ccccc12	-1
Cc1nc(N=Nc2ccc(S(=O)(=O)O)cc2S(=O)(=O)O)c(COP(=O)(O)O)c(C=O)c1O	-1
O=C(O)C1CN(CCCP(=O)(O)O)CCN1 (centres undefined)	-1
N=C(N)SCCN	-1
NC(N)=NC(N)=Nc1cccc(Cl)c1	-1

====

RUN_DESCRIPTION: Nrf2 qHTS screen for inhibitors: Validation (AID 493153)
REPORTED_CONDITIONS: A549 ARE-Fluc reporter, 18-24 h; measured here: cytotoxicity max response
Results filed as inconclusive are left out.
Entries and their viability change values follow.
QUANTITY_NAME: viability change (%)

> print(dat)
                                    compound     quantity.name  assay.value
 1                              CC(=O)C(C)=O  viability change        -3.11
 2  CCCN(CCc1ccccc1)C1CCc2c(O)cccc2C1 (configuration not stated)  viability change        -8.23
 3  COC(=O)[C@H](NC(=O)c1cc(-c2ccccc2)nc2ccccc12)c1ccccc1  viability change        -11.1
 4             O=C(c1ccc2c(c1)OCCO2)N1CCCCC1  viability change         1.66
 5  CN1CCCC1CCOC(C)(c1ccccc1)c1ccc(Cl)cc1 (configuration not stated)  viability change       -0.239
 6  Oc1cc2c(cc1O)C(c1ccccc1)CNCC2 (configuration not stated)  viability change        -2.55
 7  CC(N)(Cc1ccc(O)c(O)c1)C(=O)O (configuration not stated)  viability change       -0.588
 8  CC(C)C[C@H](NC(=O)[C@H](O)[C@H](N)Cc1ccccc1)C(=O)O  viability change         5.98
 9                             S=C(S)N1CCCC1  viability change        -3.57
10  CCCc1c(-c2ccc(O)cc2)nn(-c2ccc(O)cc2)c1-c1ccc(O)cc1  viability change        -5.33
11          CCCCCCC(=O)OC1CC(C)(C)NC(C)(C)C1  viability change         2.37
12        c1ccc(CN2CCC3(CCCc4ccccc43)CC2)cc1  viability change        -10.2
